# target.system: human β-Secretase (Homo sapiens, UniProt P56817)
# Construct: soluble part of the human β-Secretase (AA 1-AA 460); Fc domain of IgG1 (C); made in house
# Sequence (P56817 22-460): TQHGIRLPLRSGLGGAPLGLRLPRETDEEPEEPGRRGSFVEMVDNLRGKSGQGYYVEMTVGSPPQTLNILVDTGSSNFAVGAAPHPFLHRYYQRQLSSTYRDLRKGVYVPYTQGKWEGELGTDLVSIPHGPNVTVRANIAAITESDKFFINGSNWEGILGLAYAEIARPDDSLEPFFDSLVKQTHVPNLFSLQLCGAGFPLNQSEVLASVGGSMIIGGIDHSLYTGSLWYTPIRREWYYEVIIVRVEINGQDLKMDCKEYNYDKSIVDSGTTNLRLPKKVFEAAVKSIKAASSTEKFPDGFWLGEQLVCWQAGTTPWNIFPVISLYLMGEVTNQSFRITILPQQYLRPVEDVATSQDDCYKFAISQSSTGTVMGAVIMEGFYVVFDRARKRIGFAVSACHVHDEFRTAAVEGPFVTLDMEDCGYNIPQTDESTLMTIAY
# assay.protocol: TR-FRET assay (β-secretase enzyme, sBACE-Fc)
# Type: biochemical
# conditions: soluble human β-secretase (AA 1-460) Fc fusion, substrate (Europium)CEVNLDAEFK(Qsy7) 100 nM, pH 4.5; unit inferred, nM taken
Exercise: for every item that follows, state its recorded IC50.
Give bare numbers, in nM.

Illustrative cases are given below, each with its answer.
1) NC1=NC(c2cccc(-c3cncnc3)c2)(c2ccnc(OCCCF)c2)c2cccnc21 (stereo not drawn) ... 1560
2) Cc1cc(C2(c3cccc(-c4cncnc4)c3)N=C(N)c3ncccc32)cc(C)c1OC(F)F (stereo not drawn) ... 47

Turning now to a further compound:
Readout IC50 for NC1=NC(c2cccc(-c3cccnc3)c2)(c2ccnc(C(F)(F)F)c2)c2cccnc21 (stereo not drawn) , test system human β-Secretase (Homo sapiens, UniProt P56817), was 560
